All values here come from patent US20190106460A1.

Tested Target: T1, Beta Transducin repeat-containing protein (βTrCP), tag cleaved and complexed with Skp1 (UniProt Q9Y297 175-605; P63208 1-163)
T1 construct: the FP protocol says that Ki is determined from FP dose-response curves; also called βTrCP/Skp1
T1 sequence (Q9Y297 175-605, chain 1 of 2): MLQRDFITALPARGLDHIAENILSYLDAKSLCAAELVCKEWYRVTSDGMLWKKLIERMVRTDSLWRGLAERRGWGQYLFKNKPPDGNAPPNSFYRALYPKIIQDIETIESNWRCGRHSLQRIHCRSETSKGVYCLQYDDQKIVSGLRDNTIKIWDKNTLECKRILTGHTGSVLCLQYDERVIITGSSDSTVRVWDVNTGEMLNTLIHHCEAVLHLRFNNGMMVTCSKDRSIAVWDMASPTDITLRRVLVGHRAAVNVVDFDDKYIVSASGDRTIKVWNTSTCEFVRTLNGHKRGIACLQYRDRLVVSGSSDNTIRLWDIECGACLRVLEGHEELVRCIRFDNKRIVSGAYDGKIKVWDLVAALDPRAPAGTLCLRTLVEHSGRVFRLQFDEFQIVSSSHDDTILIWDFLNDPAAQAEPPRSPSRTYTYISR
T1 sequence (P63208 whole entry, chain 2 of 2): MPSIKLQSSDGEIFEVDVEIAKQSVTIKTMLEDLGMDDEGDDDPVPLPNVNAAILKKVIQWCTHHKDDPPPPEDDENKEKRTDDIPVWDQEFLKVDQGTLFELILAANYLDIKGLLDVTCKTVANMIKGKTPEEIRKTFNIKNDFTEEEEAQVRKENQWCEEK
Measurement Protocol: FP competition dose-response, fluorescein-IkB peptide tracer on βTrCP/Skp1 (average Ki; assay not given)
Non-standard residues stand in square brackets, D forms with d. *: point of attachment. Benzenesulfonyl(4-OMe) = COc1ccc(S(=O)(=O)*)cc1; Phe(3-F) = N[C@@H](Cc1cccc(F)c1)C(=O)O; Ahx = NCCCCCC(=O)O
Each entry below carries its recorded Ki.
Experimental Readout: Ki (nM)

{Benzenesulfonyl(4-OMe)}-[dD]EG[Phe(3-F)]WE[Ahx]K(3,5‑dichlorobenzoyl)-NH2 (also called UBP062) [4-(MeO)PhSO2-dEGF(3F)WE-Ahx-K(NHCO-(3,5-(Cl)2-Ph))-NH2]    6.23
{2,4‑(Cl)2‑PhSO2}-[dD]EG[Phe(3-F)]WE-NH2 (also called UBP048) [2,4-(Cl)2-PhSO2-dEGF(3F)WE-NH2]    27
{4‑Pr‑PhSO2}-[dD]EG[Phe(3-F)]WE-NH2 (also called UBP041) [4-Pr-PhSO2-dEGF(3F)WE-NH2]    1.77
{Benzenesulfonyl(4-OMe)}-[dD]EG[Phe(3-F)]WE[Ahx]K(4‑bromophenylsulfonyl)-NH2 (also called UBP059) [4-(MeO)PhSO2-dEGF(3F)WE-Ahx-K(NHSO2-(4-(Br)-Ph))-NH2]    2.96
